Test system: E. faecalis (G+)
assay comment: Minimum inhibitory concentration (MIC), E. faecalis
Type: cell-based, Enterococcus faecalis
assay conditions: Experiment 2, Table 3
measure name: MIC E. faecalis (G+)
Remember to follow the number with its unit.

Illustrative cases are given below, each with its answer.
CCCCCCCCCC[N+](C)(C)Cc1cc(C[N+](C)(C)CCO)cc(C[N+](C)(C)CCCCCCCCCC)c1.[Br-].[Br-].[Br-] [Compound 2] ... 4 µM
CCCCCCCCCCCC[N+](C)(C)Cc1cc(C[N+](C)(C)CCO)cc(C[N+](C)(C)CCCCCCCCCCCC)c1.[Br-].[Br-].[Br-] [Compound 3] ... 2 µM
CCCCCCCCCCCCCC[N+](C)(C)Cc1cc(C[N+](C)(C)CCO)cc(C[N+](C)(C)CCCCCCCCCCCCCC)c1.[Br-].[Br-].[Br-] [Compound 4] ... 4 µM
CCCCCCCC[N+](C)(C)Cc1cc(C[N+](C)(C)CCO)cc(C[N+](C)(C)CCCCCCCC)c1.[Br-].[Br-].[Br-] [Compound 1] ... 63 µM

Note: attention shifts to another entry.
Provide the reported MIC E. faecalis (G+) (system: E. faecalis (G+)) for CCCCCCCCCCCCCCCC[N+](C)(C)Cc1cc(C[N+](C)(C)CCO)cc(C[N+](C)(C)CCCCCCCCCCCCCCCC)c1.[Br-].[Br-].[Br-] [Compound 5]
63 µM
